test system: MALME-3M melanoma; assay: NCI tumour cell line growth inhibition, 48 h; in the data active means GI50 below about 0.43 µM; inactive means the rest
# valid calls are active, inactive; nothing else

**Query** Dear colleague, could you share the recorded outcome for C[C@@H]1CC[C@H]2C(CN(C)CC3=C(C(F)(F)F)O[C@@H]4O[C@@]5(C)CC[C@H]6[C@H](C)CC[C@@H]3[C@@]46OO5)=C(C(F)(F)F)O[C@@H]3O[C@@]4(C)CC[C@@H]1[C@]32OO4 when you have a moment?
**Result** inactive

**Query** Dear colleague, could you share the recorded outcome for COC(=O)CCCCCCCCC(=O)c1c(C)[nH]c(/C=C2\N=C(c3ccc[nH]3)C=C2OC)c1C when you have a moment?
**Result** inactive

**Query** Dear colleague, could you share the recorded outcome for CN(C)CC1CCCCCCCCCCC1=O (stereo not given) when you have a moment?
**Result** inactive

**Query** Dear colleague, could you share the recorded outcome for CN1CCN(Cc2ccc(NC(=O)c3cncc(C#Cc4cncc5[nH]ncc45)c3)cc2C(F)(F)F)CC1 when you have a moment?
**Result** active

**Query** Dear colleague, could you share the recorded outcome for CCOC(=O)CCC(NC(=O)c1ccc(Nc2nc3cc(N)cc(N)c3nc2-c2ccccc2)cc1)C(=O)OCC (stereo not given) when you have a moment?
**Result** inactive
